Target system: human GABA A receptor α5βγ2 (Homo sapiens, UniProt P18507+P31644)
Construct: expressed in transfected cells; host or cells: HEK293
Measurement notes: [3H]flumazenil competition binding, HEK293 cell membranes
Reported metric: Ki (nM)

• N#Cc1ccc2c(c1)-c1ncnn1Cc1c(C(F)F)ncn1-2 = 16.5
• FCc1ncn2c1Cn1ncnc1-c1cc(F)ccc1-2 = 9.1
• Cc1nc2n(n1)Cc1c(CF)ncn1-c1ccc(Cl)cc1-2 = 2.5
• FCc1ncn2c1Cn1ncnc1-c1cc(C3CC3)ccc1-2 = 14.7
• Fc1ccc2c(c1)-c1ncnn1Cc1c(C(F)F)ncn1-2 = 6.8
• CC(F)(F)c1ncn2c1Cn1ncnc1-c1cc(F)ccc1-2 = 26.6
• Fc1ccc2c(c1)-c1ncnn1Cc1c(C(F)(F)F)ncn1-2 = 7
• CCc1ccc2c(c1)-c1ncnn1Cc1c(C(F)F)ncn1-2 = 31.7
• FC(F)c1ncn2c1Cn1ncnc1-c1cc(Cl)ccc1-2 = 5.6
• CCC(F)c1ncn2c1Cn1ncnc1-c1cc(Br)ccc1-2 (stereo not shown) = 37.5

###

Target system: human GABA A receptor α1β3γ2 (Homo sapiens, UniProt P14867+P18507)
Construct: expressed in transfected cells; host or cells: HEK293
Measurement notes: [3H]flumazenil competition binding, HEK293 cell membranes
pKi: −log10 of the molar value.
# pKi annotations
Reported metric: pKi

• CCC(F)(F)c1ncn2c1Cn1ncnc1-c1cc(F)ccc1-2 = 7.82
• Cc1nc2n(n1)Cc1c(CF)ncn1-c1ccc(Cl)cc1-2 = 7.30
• Fc1ccc2c(c1)-c1ncnn1Cc1c(C(F)(F)F)ncn1-2 = 7.41
• CCC(F)(F)c1ncn2c1Cn1ncnc1-c1cc(Br)ccc1-2 = 7.48
• FCc1ncn2c1Cn1ncnc1-c1cc(F)ccc1-2 = 7.30
• Fc1ccc2c(c1)-c1ncnn1Cc1c(C(F)F)ncn1-2 = 7.46
• FCc1ncn2c1Cn1ncnc1-c1cc(Cl)ccc1-2 = 7.23
• FCc1ncn2c1Cn1ncnc1-c1cc(C3CC3)ccc1-2 = 6.57
• FC(F)c1ncn2c1Cn1ncnc1-c1cc(Cl)ccc1-2 = 7.28
• FC(F)c1ncn2c1Cn1ncnc1-c1ccccc1-2 = 7.55
• FCc1ncn2c1Cn1ncnc1-c1cc(Br)ccc1-2 = 6.67
• N#Cc1ccc2c(c1)-c1ncnn1Cc1c(C(F)F)ncn1-2 = 6.61

###

Target system: human GABA A receptor α3β3γ2 (Homo sapiens, UniProt P18507+P34903)
Construct: expressed in transfected cells; host or cells: HEK293
Measurement notes: [3H]flumazenil competition binding, HEK293 cell membranes
Labelling field: enter fulfilled if recorded Ki is less than 50 nM. Enter not fulfilled if it equals or exceeds that cut-off.

• CCC(F)(F)c1ncn2c1Cn1ncnc1-c1cc(Br)ccc1-2 = not fulfilled
• FCc1ncn2c1Cn1ncnc1-c1cc(Cl)ccc1-2 = fulfilled
• FCc1ncn2c1Cn1ncnc1-c1cc(F)ccc1-2 = fulfilled
• N#Cc1ccc2c(c1)-c1ncnn1Cc1c(C(F)F)ncn1-2 = not fulfilled
• FCc1ncn2c1Cn1ncnc1-c1cc(C3CC3)ccc1-2 = not fulfilled
• FC(F)c1ncn2c1Cn1ncnc1-c1ccccc1-2 = fulfilled
• FCc1ncn2c1Cn1ncnc1-c1cc(Br)ccc1-2 = not fulfilled
• CC(F)(F)c1ncn2c1Cn1ncnc1-c1cc(F)ccc1-2 = not fulfilled
• Fc1ccc2c(c1)-c1ncnn1Cc1c(C(F)(F)F)ncn1-2 = fulfilled
• Cc1nc2n(n1)Cc1c(CF)ncn1-c1ccc(Cl)cc1-2 = not fulfilled
• CCC(F)(F)c1ncn2c1Cn1ncnc1-c1cc(F)ccc1-2 = fulfilled
• FC(F)c1ncn2c1Cn1ncnc1-c1cc(Cl)ccc1-2 = fulfilled
• Fc1ccc2c(c1)-c1ncnn1Cc1c(C(F)F)ncn1-2 = fulfilled

###

Target system: human GABA A receptor α2β3γ2 (Homo sapiens, UniProt P18507+P47869)
Construct: expressed in transfected cells; host or cells: HEK293
Measurement notes: [3H]flumazenil competition binding, HEK293 cell membranes
# Ki annotations
Reported metric: Ki

• CC(F)(F)c1ncn2c1Cn1ncnc1-c1cc(F)ccc1-2 [Example 14] = 98.8 nM
• FC(F)c1ncn2c1Cn1ncnc1-c1cc(Cl)ccc1-2 [Example 2] = 81.3 nM
• Fc1ccc2c(c1)-c1ncnn1Cc1c(C(F)(F)F)ncn1-2 [Example 5] = 23.9 nM
• Cc1nc2n(n1)Cc1c(CF)ncn1-c1ccc(Cl)cc1-2 [Example 20] = 181 nM
• N#Cc1ccc2c(c1)-c1ncnn1Cc1c(C(F)F)ncn1-2 [Example 13] = 246 nM
• FCc1ncn2c1Cn1ncnc1-c1cc(F)ccc1-2 [Example 3] = 25.4 nM
• FCc1ncn2c1Cn1ncnc1-c1cc(Br)ccc1-2 [Example 6] = 261 nM
• FCc1ncn2c1Cn1ncnc1-c1cc(C3CC3)ccc1-2 [Example 8] = 276 nM
• FC(F)c1ncn2c1Cn1ncnc1-c1ccccc1-2 [Example 16] = 13.9 nM
• CCC(F)(F)c1ncn2c1Cn1ncnc1-c1cc(F)ccc1-2 [Example 15] = 11.3 nM
• Fc1ccc2c(c1)-c1ncnn1Cc1c(C(F)F)ncn1-2 [Example 4] = 14.4 nM
• FCc1ncn2c1Cn1ncnc1-c1cc(Cl)ccc1-2 [Example 1] = 67 nM

###

# Ki annotations
Target system: human GABA A receptor α2β3γ2 (Homo sapiens, UniProt P18507+P47869)
Construct: expressed in transfected cells; host or cells: HEK293
Measurement notes: [3H]flumazenil competition binding, HEK293 cell membranes
Condition set: human α2β3γ2, transiently transfected HEK293; 1 nM [3H]flumazenil; mean of two determinations; read-out: Ki[nM] hα2
Reported metric: Ki (nM)

- CCC(F)c1ncn2c1Cn1ncnc1-c1cc(Br)ccc1-2 (centres unmarked) [Example 18]: 764
- CCc1ccc2c(c1)-c1ncnn1Cc1c(C(F)F)ncn1-2 [Example 10]: 624
- C#Cc1ccc2c(c1)-c1ncnn1Cc1c(C(F)F)ncn1-2 [Example 12]: 416
